Provide the reported Neutralization IC50, H3-VC11 of each item.
# test target: HA of A/Victoria/361/11 (H3N2) virus (influenza A virus)
# experiment notes: cell-based or functional assay
Report the value in µg/mL with no unit label.

*Q* Look at this binder and give its reported Neutralization IC50, H3-VC11. Antibody 15 (antibody, V domains shown) VH: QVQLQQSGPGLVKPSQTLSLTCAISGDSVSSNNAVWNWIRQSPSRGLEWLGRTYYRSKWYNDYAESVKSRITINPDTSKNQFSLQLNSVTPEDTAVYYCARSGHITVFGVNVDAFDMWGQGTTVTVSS VL: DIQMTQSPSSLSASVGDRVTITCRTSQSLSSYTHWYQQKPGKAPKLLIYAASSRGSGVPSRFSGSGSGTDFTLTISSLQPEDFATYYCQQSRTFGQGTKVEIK
*A* 1.29

*Q* Look at this binder and give its reported Neutralization IC50, H3-VC11. Antibody 13 (antibody, V domains shown) VH: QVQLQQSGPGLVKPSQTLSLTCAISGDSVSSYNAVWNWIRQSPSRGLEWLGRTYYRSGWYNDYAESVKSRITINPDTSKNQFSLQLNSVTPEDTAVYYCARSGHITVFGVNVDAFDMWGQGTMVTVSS VL: DIQMTQSPSSLSASVGDRVTITCRTSQSLSSYDHWYQQKPGKAPKLLIYAASSRLSGVPSRFSGSGSGTDFTLTISSLQPEDFATYYCQQSRTFGQGTKVEIK
*A* 1.03
